Molecular target: corpora allata (CA) of adult female M. sexta stimulated with Manse-AT (Manduca sexta)
Sequence (F1CZQ1 1-457): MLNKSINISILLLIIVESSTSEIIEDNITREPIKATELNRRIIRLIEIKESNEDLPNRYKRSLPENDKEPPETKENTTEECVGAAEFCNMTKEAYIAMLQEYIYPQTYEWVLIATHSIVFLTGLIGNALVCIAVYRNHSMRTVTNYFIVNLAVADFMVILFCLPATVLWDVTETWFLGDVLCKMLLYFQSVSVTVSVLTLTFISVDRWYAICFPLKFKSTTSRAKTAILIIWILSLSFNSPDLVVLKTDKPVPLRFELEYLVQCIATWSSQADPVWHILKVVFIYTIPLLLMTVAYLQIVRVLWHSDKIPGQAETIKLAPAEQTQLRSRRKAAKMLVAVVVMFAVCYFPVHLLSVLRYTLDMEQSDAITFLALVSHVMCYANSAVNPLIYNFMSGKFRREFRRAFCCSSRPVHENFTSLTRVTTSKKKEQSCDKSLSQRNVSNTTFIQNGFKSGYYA
Format: cell-based
Conditions: read-out: Antagonistic Effects on JH Biosynthesis IC50 (95% CI); antagonist at varying concentrations mixed with 1 nM Manse-AT; CA from day 3 females, 3 h at 30 °C; JH II + JH III by GC-MS/MS; 9–13 repeats per concentration; 95% CI in brackets
Experimental: On the day of adult emergence (day 0), females were marked and maintained in the wooden chamber until used. The assays for JH biosynthesis were performed using CA from day 3 females. […] The organic phases (upper layer) were removed and transferred to the analyzed vials. […] The quantitative assay for JH II and JH III titer was determined by GC-MS/MS as described previously. […] The quantification transition for JH II was 107→105.4 (collsion energy: 45 eV). […]
Non-standard residues stand in square brackets, D forms with d. Residues, ends and D or L forms follow the SMILES beside them. Phe(4-Cl) = N[C@@H](Cc1ccc(Cl)cc1)C(=O)O; Phe(4-Me) = Cc1ccc(C[C@H](N)C(=O)O)cc1
observationType: IC50
// return the numeric value with its unit appended

Record excerpt, results attached:
molecule="C[C@H](N)C(=O)N[C@@H](CCCNC(=N)N)C(=O)N[C@@H](C)C(=O)N[C@@H](Cc1ccccc1)C(N)=O [analog 7] (H-ARAF-NH2)" observationtype=IC50 reported="17.5 nM"
molecule="CC(C)C[C@H](N)C(=O)N[C@@H](CCCNC(=N)N)C(=O)NCC(=O)N[C@@H](Cc1ccccc1)C(N)=O [analog 2] (H-LRGF-NH2)" observationtype=IC50 reported="35.4 nM"
molecule="C[C@H](N)C(=O)N[C@@H](CCCNC(=N)N)C(=O)NCC(=O)N[C@@H](Cc1ccccc1)C(N)=O [Manse-AT (10–13)] (H-ARGF-NH2)" observationtype=IC50 reported="0.9 nM"
molecule="C[C@H](N)C(=O)N[C@@H](CCCNC(=N)N)C(=O)NCC(=O)N[C@@H](Cc1ccc(Cl)cc1)C(N)=O [analog 12] (H-ARG[Phe(4-Cl)]-NH2)" observationtype=IC50 reported="9.4 nM"

Please supply IC50 for each of the following items, keeping them in order.
1. N=C(N)NCCC[C@H](NC(=O)CN)C(=O)NCC(=O)N[C@@H](Cc1ccccc1)C(N)=O [analog 1] (H-GRGF-NH2)
2. C[C@H](N)C(=O)N[C@@H](CCCNC(=N)N)C(=O)NCC(=O)N[C@@H](Cc1ccc(O)cc1)C(N)=O [analog 10] (H-ARGY-NH2)
3. Cc1ccc(C[C@H](NC(=O)CNC(=O)[C@H](CCCNC(=N)N)NC(=O)[C@H](C)N)C(N)=O)cc1 [analog 11] (H-ARG[Phe(4-Me)]-NH2)

RESULT:
1.2 nM
1 nM
8.4 nM

From: paper PMC6017089
